Target: T1, human B7-1 R63D on cells (Homo sapiens, UniProt P33681 35-280)
T1 construct: mCherry-tagged point mutant; also called ARG63 ASP
T1 chain: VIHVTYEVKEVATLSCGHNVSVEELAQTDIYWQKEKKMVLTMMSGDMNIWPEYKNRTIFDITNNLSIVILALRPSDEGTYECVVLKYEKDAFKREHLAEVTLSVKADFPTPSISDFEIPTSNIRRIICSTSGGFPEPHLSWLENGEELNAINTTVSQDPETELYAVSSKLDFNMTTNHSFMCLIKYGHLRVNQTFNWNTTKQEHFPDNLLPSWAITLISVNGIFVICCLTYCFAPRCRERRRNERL
Experiment: cell-cell binding, flow cytometry; percent of the wild-type pair
readout_kind: percent binding (%)
Kindly provide the numeric value in % only, without the unit symbol.

Reported percent binding, binder human p75 neurotrophin receptor, full length, expressed on HEK 293 cells (receptor, Full-length human p75 with a cytosolic fluorescent tag (GFP); also called p75NTR; NGFR) KEACPTGLYTHSGECCKACNLGEGVAQPCGANQTVCEPCLDSVTFSDVVSATEPCKPCTECVGLQSMSAPCVEADDAVCRCAYGYYQDETTGRCEACRVCEAGSGLVFSCQDKQNTVCEECPDGTYSDEANHVDPCLPCTVCEDTERQLRECTRWADAECEEIPGRWITRSTPPEGSDSTAPSTQEPEAPPEQDLIASTVAGVVTTVMGSSQPVVTRGTTDNLIPVYCSILAAVVVGLVAYIAFKRWNSCKQNKQGANSRPVNQTPPPEGEKLHSDSGISVDSQSLHDQQPHTQTASGQALKGDGGLYSSLPPAKREEVEKLLNGSAGDTWRHLAGELGYQPEHIDSFTHEACPVRALLASWATQDSATLDALLAALRRIQRADLVESLCSESTATSPV : ____ 30

Hello, the source for this data is patent US20240201167A1, in case you need it.
